System: Klebsiella aerogenes 1976E
test-protocol: In vitro antibacterial activity (MIC, agar dilution), Biological Example 1
Assay type: cell-based
assay-conditions: 18 h, Table 25, read-out: Minimum Inhibitory Concentration
Hi! Just check whether MIC is below 0.2 µg/mL. Below gives y, equal or above gives n.

Worked examples follow.
C#CCON=C1CN(c2nc3c(cc2F)c(=O)c(C(=O)O)cn3C2CC2)CC1CN (centres unmarked) [Example 103]	y
NCC1CN(c2cc3c(cc2F)c(=O)c(C(=O)O)cn3C2CC2)CC1=NOCc1ccccc1 (centres unmarked) [Example 12]	n

For CC(C)(C)ON=C1CN(c2nc3c(cc2F)c(=O)c(C(=O)O)cn3C2CC2)CC1CN (centres unmarked) [Example 89] , is the recorded MIC below the cut-off of 0.2 µg/mL? n

For NCC1CN(c2nc3c(cc2F)c(=O)c(C(=O)O)cn3C2CC2)CC1=NOCc1ccccc1 (centres unmarked) [Example 1] , is the recorded MIC below the cut-off of 0.2 µg/mL? n

---

Test system: Enterobacter cloacae P99
test-protocol: microbe, parasite or virus in culture
Assay type: cell-based
assay-conditions: P99, 18 h, read-out: Minimum Inhibitory Concentration
Entries and their MIC values follow.
Give the number; µg/mL is assumed, so skip it.

Form field MIC, entry C#CCCON=C1CN(c2nc3c(cc2F)c(=O)c(C(=O)O)cn3C2CC2)CC1CN (centres unmarked) : 0.016

Form field MIC, entry NCC1CN(c2c(F)cc3c(=O)c(C(=O)O)cn(C4CC4)c3c2Cl)CC1=NOCc1ccccc1 (centres unmarked) : 0.063

Form field MIC, entry NCC1CN(c2cc3c(cc2F)c(=O)c(C(=O)O)cn3C2CC2)CC1=NOCc1ccccc1 (centres unmarked) : 0.063

Form field MIC, entry CON=C1CN(c2cc3c(cc2F)c(=O)c(C(=O)O)cn3C2CC2)CC1CN (centres unmarked) : 0.008

Form field MIC, entry CC(C)(C)ON=C1CN(c2nc3c(cc2F)c(=O)c(C(=O)O)cn3C2CC2)CC1CN (centres unmarked) : 0.016

Form field MIC, entry CC(C)CON=C1CN(c2nc3c(cc2F)c(=O)c(C(=O)O)cn3C2CC2)CC1CN (centres unmarked) : 0.031

Form field MIC, entry CON=C1CN(c2c(F)cc3c(=O)c(C(=O)O)cn(C4CC4)c3c2Cl)CC1CN (centres unmarked) : 0.063

Form field MIC, entry CON=C1CN(c2c(F)cc3c(=O)c(C(=O)O)cn(C4CC4)c3c2F)CC1CN (centres unmarked) : 0.016

---

Entries and their MIC values follow.
Test system: Escherichia coli 10536
test-protocol: In vitro antibacterial activity (MIC, agar dilution), Biological Example 1
Assay type: cell-based
assay-conditions: 18 h; Escherichia coli 10536, Table 25; read-out: Minimum Inhibitory Concentration

C#CCCON=C1CN(c2nc3c(cc2F)c(=O)c(C(=O)O)cn3C2CC2)CC1CN (centres unmarked)	≤ 0.008 µg/mL
NCC1CN(c2cc3c(cc2F)c(=O)c(C(=O)O)cn3C2CC2)CC1=NOCc1ccccc1 (centres unmarked)	≤ 0.008 µg/mL
NCC1CN(c2c(F)c(N)c3c(=O)c(C(=O)O)cn(C4CC4)c3c2F)CC1=NOCc1ccccc1 (centres unmarked)	≤ 0.008 µg/mL
CC1COc2c(N3CCN(C)CC3)c(F)cc3c(=O)c(C(=O)O)cn1c23 (centres unmarked) [OFLX, ofloxacin, reference compound]	0.031 µg/mL
CC(C)CON=C1CN(c2nc3c(cc2F)c(=O)c(C(=O)O)cn3C2CC2)CC1CN (centres unmarked)	≤ 0.008 µg/mL

Form field MIC, entry CC(C)(C)ON=C1CN(c2nc3c(cc2F)c(=O)c(C(=O)O)cn3C2CC2)CC1CN (centres unmarked) : 0.016 µg/mL

Form field MIC, entry C#CCON=C1CN(c2nc3c(cc2F)c(=O)c(C(=O)O)cn3C2CC2)CC1CN (centres unmarked) : ≤ 0.008 µg/mL

Form field MIC, entry NCC1CN(c2c(F)cc3c(=O)c(C(=O)O)cn(C4CC4)c3c2Cl)CC1=NOCc1ccccc1 (centres unmarked) : 0.016 µg/mL

These measurements were taken from patent US5776944A.
